Numbers sourced from ChEMBL document CHEMBL5725430.

- Tested On: Phosphatidylinositol 4,5-bisphosphate 3-kinase catalytic subunit alpha isoform (Homo sapiens, UniProt P42336)
- Sequence (P42336 whole entry, canonical isoform): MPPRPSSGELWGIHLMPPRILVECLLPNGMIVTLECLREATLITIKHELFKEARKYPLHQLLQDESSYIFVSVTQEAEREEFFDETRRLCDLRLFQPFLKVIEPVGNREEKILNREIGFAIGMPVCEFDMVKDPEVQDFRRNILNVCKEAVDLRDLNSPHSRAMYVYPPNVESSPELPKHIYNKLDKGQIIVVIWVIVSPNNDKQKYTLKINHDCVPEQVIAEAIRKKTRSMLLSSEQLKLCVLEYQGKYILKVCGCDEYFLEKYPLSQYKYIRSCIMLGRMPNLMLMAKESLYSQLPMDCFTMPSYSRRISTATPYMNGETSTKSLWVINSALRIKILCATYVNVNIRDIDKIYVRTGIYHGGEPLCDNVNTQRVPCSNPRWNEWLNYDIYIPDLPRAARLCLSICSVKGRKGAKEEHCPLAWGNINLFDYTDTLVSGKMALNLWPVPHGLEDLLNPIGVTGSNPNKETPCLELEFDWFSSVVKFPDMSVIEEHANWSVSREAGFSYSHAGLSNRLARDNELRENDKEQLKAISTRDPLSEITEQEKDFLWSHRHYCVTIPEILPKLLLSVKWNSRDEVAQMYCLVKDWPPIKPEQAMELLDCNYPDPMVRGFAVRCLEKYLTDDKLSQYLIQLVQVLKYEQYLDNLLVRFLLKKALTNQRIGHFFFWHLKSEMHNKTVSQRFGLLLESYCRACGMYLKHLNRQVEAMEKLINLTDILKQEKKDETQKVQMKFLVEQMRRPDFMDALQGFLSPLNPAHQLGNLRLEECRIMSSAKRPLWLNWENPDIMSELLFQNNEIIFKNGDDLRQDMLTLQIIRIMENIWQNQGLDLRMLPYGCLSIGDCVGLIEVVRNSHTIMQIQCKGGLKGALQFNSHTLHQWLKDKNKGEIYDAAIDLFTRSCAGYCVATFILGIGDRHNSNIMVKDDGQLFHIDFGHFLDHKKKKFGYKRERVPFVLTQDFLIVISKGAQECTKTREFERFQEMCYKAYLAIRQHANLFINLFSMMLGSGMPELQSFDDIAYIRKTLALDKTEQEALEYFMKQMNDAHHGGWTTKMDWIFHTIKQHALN
- Protocol Description: The final concentrations of ATP and phosphatidyl inositol in the assay are 5 μM and 6 μg/mL, respectively. The reaction is started by the addition of PI3 kinase, e.g. PI3 kinase 6.p110δ.The components of the assay are added per well as follows 10 μl test compound in 5% DMSO per well in columns 2-1. Total activity is determined by addition 10 μl of 5% vol/vol DMSO in the first 4 wells of column 1 and the last 4 wells of column 12. The background is determined by addition of 10 μM control compound to the last 4 wells of column 1 and the first 4 wells of column 12. 2 mL Assay mix are prepared per plate 1.912 mL of HEPES assay buffer 8.33 μl of 3 mM stock of ATP giving a final concentration of 5 μM per well 1 μl of [33P]ATP on the activity date giving 0.05 μCi per well 30 μl of 1 mg/mL PI stock giving a final concentration of 6 μg/mL per well 5 μl of 1 M stock MgCl2 giving a final concentration of 1 mM per well 20 μl of the assay mix are added per well. 2 mL Enzyme mix are prepared per plate (x* μl PI3 kinase p110(3 in 2 mL of kinase buffer). The Enzyme mix is kept on ice during addition to the assay plates. 20 μl ‘Enzyme mix’ are added/well to start the reaction. The plate is then incubated at room temperature for 90 minutes. The reaction is terminated by the addition of 50 μl WGA-SPA bead (wheat germ agglutinin-coated Scintillation Proximity Assay beads) suspension per well. The assay plate is sealed using TopSeal-S (heat seal for polystyrene microplates, PerkinElmer LAS [Deutschland] GmbH, Rodgau, Germany) and incubated at room temperature for at least 60 minutes. The assay plate is then centrifuged at 1500 rpm for 2 minutes using the Jouan bench top centrifuge (Jouan Inc., Nantes, France). The assay plate is counted using a Packard TopCount, each well being counted for 20 seconds. The volume of enzyme is dependent on the enzymatic activity of the batch in use.In a more preferred assay, the kinase reaction is performed in a final volume of 10 μl per well of a low volume non-binding CORNING, 384 well black plate (Cat. No. #3676). The final concentrations of ATP and phosphatidyl inositol (PI) in the assay are 1 μM and 10 μg/mL, respectively. The reaction is started by the addition of ATP.The components of the assay are added per well as follows:50 nl test compounds in 90% DMSO per well, in columns 1-20, 8 concentrations (⅓ and 1/3.33 serial dilution step) in single. Low control: 50 nl of 90% DMSO in half the wells of columns 23-24 (0.45% in final). High control: 50 nl of reference compound (e.g. compound of Example 7 in WO 2006/122806) in the other half of columns 23-24 (2.5 μM in final). Standard: 50 nl of reference compound as just mentioned diluted as the test compounds in columns 21-22. 20 mL buffer are prepared per assay 200 μl of 1M TRIS HCl pH7.5 (10 mM in final) 60 μl of 1M MgCl2 (3 mM in final) 500 μl of 2M NaCl (50 mM in final) 100 μl of 10% CHAPS (0.05% in final) 200 μl of 100 mM DTT (1 mM in final) 18.94 mL of nanopure water 10 mL PI are prepared per assay 200 μl of 1 mg/mL 1-alpha-Phosphatidylinositol (Liver Bovine, Avanti Polar Lipids Cat. No. 840042C MW=909.12) prepared in 3% OctylGlucoside (10 μg/mL in final) 9.8 mL of buffer 10 mL ATP are prepared per assay.
Record form. Attribute: pIC50. Fill in for each entry.
The scale used: pIC50 is minus the common logarithm of the concentration in molar units.

Inquiry: What value of pIC50 has been recorded for this entry: `O=C(C1CCOCC1)N1CC[C@H](Oc2ccc3c(c2)N(c2cncc(S(=O)(=O)N4CCOCC4)c2)CCO3)C1`
Reply text: 6.50

Inquiry: What value of pIC50 has been recorded for this entry: `O=C(C1CCOCC1)N1CC[C@H](Oc2ccc3c(c2)N(c2cncc(C(F)(F)F)c2)CCO3)C1`
Reply text: 6.42

Inquiry: What value of pIC50 has been recorded for this entry: `Cc1cc(N2CCOc3cnc(O[C@H]4CCN(C(=O)C5CCS(=O)(=O)CC5)C4)cc32)cnc1OC(F)F`
Reply text: 6.06

Inquiry: What value of pIC50 has been recorded for this entry: `CC(C)S(=O)(=O)c1cncc(N2CCOc3ccc(O[C@H]4CCN(C(=O)C5CCOCC5)C4)cc32)c1`
Reply text: 5.65

Inquiry: What value of pIC50 has been recorded for this entry: `Cc1ccc(N2CCOc3ccc(O[C@H]4CCN(C(=O)C5CCOCC5)C4)cc32)cn1`
Reply text: 5.33

Inquiry: What value of pIC50 has been recorded for this entry: `COc1cc(N2CCOc3ccc(O[C@H]4CCN(C(=O)C5CCC(F)(F)CC5)C4)cc32)cnc1S(C)(=O)=O`
Reply text: 6.06

Inquiry: What value of pIC50 has been recorded for this entry: `COc1cc(N2CCOc3ccc(O[C@H]4CCN(C(=O)c5cn(C)cn5)C4)cc32)cnc1Cl`
Reply text: 6.30

Inquiry: What value of pIC50 has been recorded for this entry: `COc1ncc(N2CCOc3ccc(O[C@H]4CCN(C(=O)c5cn(C)cn5)C4)cc32)cc1F`
Reply text: 6.68
